Data provenance is paper PMC7531004.

condition context: cell viability/%
Where a SMILES comes first, the peptide text is derived from it. [ ]: non-standard residue; d: D form. The star is where a group is joined. NHCH2CH2OH = OCCN*; For = O=C*
measured parameter: viability

Observe how each entry below is paired with its result.
compound	viability
CC(C)C[C@@H](NC(=O)[C@H](C)NC(=O)CNC(=O)[C@@H](NC=O)C(C)C)C(=O)N[C@@H](C)C(=O)N[C@@H](C(=O)N[C@H](C(=O)N[C@@H](C(=O)N[C@@H](Cc1c[nH]c2ccccc12)C(=O)N[C@@H](C(=O)N[C@@H](Cc1c[nH]c2ccccc12)C(=O)N[C@H](CC(C)C)C(=O)N[C@@H](Cc1c[nH]c2ccccc12)C(=O)N[C@@H](C(=O)N[C@@H](Cc1c[nH]c2ccccc12)C(=O)NCCO)C(C)C)[C@H](C)O)[C@H](C)O)C(C)C)C(C)C [compound 5747] (For-VGA[dL]A[dV]V[dT]W[dT]W[dL]W[dV]W-NHCH2CH2OH)	100%
CC(C)C[C@@H](NC(=O)[C@H](C)NC(=O)CNC(=O)[C@@H](NC=O)C(C)C)C(=O)N[C@@H](C)C(=O)N[C@@H](C(=O)N[C@H](C(=O)N[C@H](CC(C)C)C(=O)N[C@@H](Cc1c[nH]c2ccccc12)C(=O)N[C@H](CC(C)C)C(=O)N[C@@H](Cc1c[nH]c2ccccc12)C(=O)N[C@@H](C(=O)N[C@@H](Cc1c[nH]c2ccccc12)C(=O)N[C@H](CC(C)C)C(=O)N[C@@H](Cc1c[nH]c2ccccc12)C(=O)NCCO)C(C)C)C(C)C)[C@H](C)O [compound 3247] (For-VGA[dL]A[dT]V[dL]W[dL]W[dV]W[dL]W-NHCH2CH2OH)	99.5%
CNC(=O)C[C@@H](NC(=O)[C@H](Cc1c[nH]c2ccccc12)NC(=O)[C@@H](CC(C)C)NC(=O)[C@H](Cc1c[nH]c2ccccc12)NC(=O)[C@@H](CC(C)C)NC(=O)[C@@H](NC(=O)[C@H](NC(=O)[C@H](C)NC(=O)[C@H](NC(=O)[C@H](C)NC(=O)CNC(=O)[C@@H](NC=O)C(C)C)C(C)C)C(C)C)C(C)C)C(=O)N[C@@H](Cc1c[nH]c2ccccc12)C(=O)N[C@H](CC(C)C)C(=O)N[C@@H](Cc1c[nH]c2ccccc12)C(=O)NCCO [compound 4203] (For-VGA[dV]A[dV]V[dL]W[dL]W[dD](NHMe)W[dL]W-NHCH2CH2OH)	100%

Then this compound:
Requested field: viability. Item: CC(C)C[C@@H](NC(=O)[C@H](C)NC(=O)CNC(=O)[C@@H](NC=O)C(C)C)C(=O)N[C@@H](C)C(=O)N[C@H](CC(C)C)C(=O)N[C@H](C(=O)N[C@@H](C(=O)N[C@@H](Cc1c[nH]c2ccccc12)C(=O)N[C@H](CC(C)C)C(=O)N[C@@H](Cc1c[nH]c2ccccc12)C(=O)N[C@@H](C(=O)N[C@@H](Cc1c[nH]c2ccccc12)C(=O)N[C@H](CC(C)C)C(=O)N[C@@H](Cc1c[nH]c2ccccc12)C(=O)NCCO)[C@H](C)O)[C@H](C)O)C(C)C [compound 1176] (For-VGA[dL]A[dL]V[dT]W[dL]W[dT]W[dL]W-NHCH2CH2OH)
100%
